Values were extracted from patent US20220177583A1.

Molecular target: T1, mouse CLDN6 fused to GFP, expressed on engineered HEK293T cells (mouse, UniProt Q9Z262 1-219)
T1 construct: whole, on cells; also called HEK293T-CLDN6-mGFP Artificial CLDN6+ (mouse); murine CLDN6; not shown: GFP tag
T1 sequence (looked up): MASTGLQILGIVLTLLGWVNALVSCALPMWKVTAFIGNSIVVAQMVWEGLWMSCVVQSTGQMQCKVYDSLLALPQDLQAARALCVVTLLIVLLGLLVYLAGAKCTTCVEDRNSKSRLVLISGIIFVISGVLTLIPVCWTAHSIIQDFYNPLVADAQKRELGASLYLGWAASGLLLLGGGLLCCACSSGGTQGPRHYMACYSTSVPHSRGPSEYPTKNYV
Assay: FACS, 293T clone with mouse CLDN6
property-name: FACS signal

AB3-chim (antibody, V domains shown, Parental antibody prior to humanization ('chim'); also called pre-humanized form of AB3) VH: EVKLEESGGGLVQPGGSMKLSCVASGFTFSNYWMNWVRQSPEKGLEWVAQIRLKSDNYATHYAESVKGRFTISRDDSKRSVYLQMNNLRAEDTGTYYCNDGPPSGCWGQGTTLIVSS VL: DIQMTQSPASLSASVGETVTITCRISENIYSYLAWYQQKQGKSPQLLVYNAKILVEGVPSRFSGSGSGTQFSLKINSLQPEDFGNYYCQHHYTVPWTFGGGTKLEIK: 67900
AB4-3 (antibody, V domains shown, Humanized; also called humanized AB 4-3) VH: QVQLVQSGAEVKKPGASVKVSCKASGYTFTSYTMHWVRQAPGQGLEWMGYINPSSTYTHYAQKFQGRVTMTADTSTSTVYMELSSLRSEDTAVYYCSRGELGGFAYWGQGTLVTVSS VL: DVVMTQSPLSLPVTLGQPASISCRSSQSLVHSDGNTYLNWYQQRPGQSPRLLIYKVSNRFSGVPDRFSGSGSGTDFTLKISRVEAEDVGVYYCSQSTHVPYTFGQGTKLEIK: 671
AB3-4 (antibody, V domains shown, Humanized; full-length IgG; also called humanized AB 3-4) VH: EVQLLESGGGLVQPGGSMRLSCAASGFTFSNYWMNWVRQAPGKGLEWVAQIRLKSDNYATHYADSVKGRFTISRDDSKNTVYLQMNSLRAEDTGVYYCNDGPPSGYWGQGTLLTVSS VL: DIQMTQSPSSLSASVGDRVTITCRISENIYSYLAWYQQKPGKAPKLLIYNAKILVEGVPSRFSGSGSGTDFTLTISSLQPEDFATYYCQHHYTVPWTFGQGTKLEIK: 1520
AB11-chim (antibody, V domains shown, Parental antibody prior to humanization ('chim'); also called pre-humanized form of AB11) VH: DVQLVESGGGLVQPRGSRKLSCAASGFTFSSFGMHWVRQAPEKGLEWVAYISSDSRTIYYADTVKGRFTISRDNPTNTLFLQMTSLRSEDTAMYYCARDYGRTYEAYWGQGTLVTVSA VL: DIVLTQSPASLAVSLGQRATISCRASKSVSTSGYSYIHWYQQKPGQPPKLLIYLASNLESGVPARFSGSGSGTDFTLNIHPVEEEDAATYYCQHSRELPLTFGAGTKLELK: 5490
AB1-11 (antibody, V domains shown, Humanized; also called humanized AB1-11; HU-11) VH: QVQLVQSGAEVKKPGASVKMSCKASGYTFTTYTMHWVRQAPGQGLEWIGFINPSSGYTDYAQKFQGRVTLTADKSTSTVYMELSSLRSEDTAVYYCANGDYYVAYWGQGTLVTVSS VL: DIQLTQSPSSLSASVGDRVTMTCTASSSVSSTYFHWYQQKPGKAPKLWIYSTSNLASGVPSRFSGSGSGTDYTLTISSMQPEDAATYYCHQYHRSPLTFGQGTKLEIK: 101000
